target-or-test-system: human liver cathepsin L (Homo sapiens, UniProt P07711)
Construct: 8.7 ng/mL human liver cathepsin L (Calbiochem 219402); purchased Calbiochem 219402; host or cells: human liver
Sequence (P07711 114-288 limits assumed): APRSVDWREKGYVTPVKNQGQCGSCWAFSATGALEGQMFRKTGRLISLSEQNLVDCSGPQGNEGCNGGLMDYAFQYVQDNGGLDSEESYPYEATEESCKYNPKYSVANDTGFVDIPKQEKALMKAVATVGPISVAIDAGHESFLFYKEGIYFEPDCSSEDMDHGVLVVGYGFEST
Sequence (P07711 292-333 limits assumed): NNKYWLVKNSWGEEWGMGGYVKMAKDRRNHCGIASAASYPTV
assay-overview: Cathepsin L assay, IC50 determination
Format: biochemical
experimental-context: no preincubation of enzyme and inhibitor; read-out: IC50 against cathepsin L (no preincubation)
property-label: pIC50
Entry type: numeric. Quantity: pIC50, the -log10 of concentration in molar units.

Lab note: measured pIC50 of CCc1ccccc1NC(=O)CSC(=O)NNC(=O)[C@H](Cc1c[nH]c2ccccc12)NC(=O)OC(C)(C)C [Compound No. 1] was 7.25

Lab note: measured pIC50 of CCc1ccccc1NC(=O)CSC(=O)NNC(=O)[C@@H](N)Cc1c[nH]c2ccccc12 [Compound (iii)] was 6.88

Lab note: measured pIC50 of CC(C)(C)OC(=O)N[C@@H](Cc1c[nH]c2ccccc12)C(=O)NNC(=O)OCC(=O)N1CCCc2ccccc21 [Compound No. 96] was 8.16

###

Would you kindly list pIC50 for each of these molecules?
target-or-test-system: Human spleen cathepsin S (Homo sapiens)
Construct: Human spleen cathepsin S (Calbiochem 219344, 40 ng/mL); purchased Calbiochem 219344; host or cells: human spleen
assay-overview: Cathepsin S assay, IC50 determination
Assay type: biochemical
experimental-context: Table 1; read-out: IC50 Cat S
Entry type: numeric. Quantity: pIC50, the -log10 of concentration in molar units.

Lab note: measured pIC50 of CCc1ccccc1NC(=O)CSC(=O)NNC(=O)[C@H](COCc1ccccc1)NC(=O)OC(C)(C)C was 5.67

Lab note: measured pIC50 of CCc1ccccc1NC(=O)CSC(=O)NNC(=O)[C@H](Cc1ccc(OCc2ccccc2)cc1)NC(=O)OC(C)(C)C was 5.55

Lab note: measured pIC50 of CC(C)C[C@H](NC(=O)OC(C)(C)C)C(=O)NNC(=O)SCC(=O)N1CCCc2ccccc21 was 5.79

Lab note: measured pIC50 of CCc1ccccc1NC(=O)CSC(=O)NNC(=O)[C@H](Cc1c[nH]c2ccccc12)NC(=O)OC(C)(C)C was 6.02

Lab note: measured pIC50 of CSCC[C@@H](CC(=O)NNC(=O)SCC(=O)N1CCCc2ccccc21)NC(=O)OC(C)(C)C was 5.52

###

target-or-test-system: Human spleen cathepsin S (Homo sapiens, UniProt P25774)
Construct: Human spleen cathepsin S (Calbiochem 219344, 40 ng/mL); purchased Calbiochem 219344; host or cells: human spleen
Sequence (P25774 115-331): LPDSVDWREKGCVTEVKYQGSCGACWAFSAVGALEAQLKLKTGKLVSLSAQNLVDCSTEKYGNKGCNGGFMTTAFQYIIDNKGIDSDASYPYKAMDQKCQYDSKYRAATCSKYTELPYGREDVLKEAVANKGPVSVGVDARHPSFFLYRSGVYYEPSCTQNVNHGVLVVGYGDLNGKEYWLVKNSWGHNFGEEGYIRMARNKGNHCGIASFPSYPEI
assay-overview: Cathepsin S assay, IC50 determination
Type: biochemical
experimental-context: Table 1; read-out: IC50 Cat S
property-label: pIC50
Entry type: numeric. Quantity: pIC50, the -log10 of concentration in molar units.

Lab note: measured pIC50 of CC(C)(C)OC(=O)N[C@@H](Cc1ccc(OCc2ccccc2)cc1)C(=O)NNC(=O)SCC(=O)N1CCc2ccccc2C1 [Compound No. 39] was 5.88

Lab note: measured pIC50 of CC(C)[C@H](NC(=O)OC(C)(C)C)C(=O)NNC(=O)SCC(=O)N1CCc2ccccc21 [Compound No. 23] was 5.14

Lab note: measured pIC50 of CC(C)(C)OC(=O)N[C@@H](Cc1c[nH]c2ccccc12)C(=O)NNC(=O)SCC(=O)NCCc1ccccc1 [Compound No. 7] was 6.49

Lab note: measured pIC50 of CCc1ccccc1NC(=O)CSC(=O)NNC(=O)[C@@H](COCc1ccccc1)NC(=O)OC(C)(C)C [Compound No. 48] was 5.35

Lab note: measured pIC50 of CCOC(=O)c1cccc(NC(=O)CSC(=O)NNC(=O)[C@H](Cc2c[nH]c3ccccc23)NC(=O)OC(C)(C)C)c1 [Compound No. 8] was 6.17

Lab note: measured pIC50 of CC(C)(C)OC(=O)N[C@@H](Cc1ccc(OCc2ccccc2)cc1)C(=O)NNC(=O)SCC(=O)N1CCOc2ccccc21 [Compound No. 41] was 5.40

Lab note: measured pIC50 of CC(C)(C)OC(=O)N[C@@H](COCc1ccccc1)C(=O)NNC(=O)SCC(=O)NCCc1ccccc1 [Compound No. 51] was 6.19

Lab note: measured pIC50 of CCOC(=O)c1ccc(NC(=O)CSC(=O)NNC(=O)[C@H](Cc2ccc(OCc3ccccc3)cc2)NC(=O)OC(C)(C)C)cc1 [Compound No. 43] was 5.97

Lab note: measured pIC50 of CCOC(=O)c1ccc(NC(=O)CSC(=O)NNC(=O)[C@H](Cc2c[nH]c3ccccc23)NC(=O)OC(C)(C)C)cc1 [Compound No. 9] was 6.24

Lab note: measured pIC50 of CC(C)(C)OC(=O)N[C@@H](Cc1c[nH]c2ccccc12)C(=O)NNC(=O)SC1CCN(c2ccccc2)C1=O (stereo partly shown) [Compound No. 14] was 5.68

Lab note: measured pIC50 of CC(C)(C)OC(=O)N[C@@H](COCc1ccccc1)C(=O)NNC(=O)SCC(=O)Nc1ccccc1[N+](=O)[O-] [Compound No. 55] was 5.84

Lab note: measured pIC50 of CC(OCc1ccccc1)[C@H](NC(=O)OC(C)(C)C)C(=O)NNC(=O)SCC(=O)N1CCCc2ccccc21 (stereo partly shown) [Compound No. 45] was 5.29

Lab note: measured pIC50 of CC(C)[C@H](NC(=O)OC(C)(C)C)C(=O)NNC(=O)SCC(=O)Nc1ccc2c(c1)CCCC2 [Compound No. 24] was 6.21

Lab note: measured pIC50 of COC(=O)CSC(=O)NNC(=O)[C@H](Cc1c[nH]c2ccccc12)NC(=O)OC(C)(C)C [Compound No. 15] was 6.24

Lab note: measured pIC50 of CCc1ccccc1NC(=O)CSC(=O)NNC(=O)[C@H](CC(C)C)NC(=O)OC(C)(C)C [Compound No. 29] was 5.78

Lab note: measured pIC50 of CC(C)(C)OC(=O)N[C@@H](COCc1ccccc1)C(=O)NNC(=O)SCC(=O)NCCc1ccc(Br)cc1 [Compound No. 52] was 6.04
